Field: log10 GI50. Provide a value for each of the molecules that follow.
Test system: MV-4-11 (human, Acute Myeloid Leukemia cell line) cells
EXPERIMENT_NOTES: Cell growth inhibition assay, GI50 of MV-4-11
Assay type: cell-based
APPLIED_CONDITIONS: Homo sapiens, MV4-11, 72 h, MV-4-11 cells
// stored as log10 of GI50 expressed in nM

// known answers, use as guide
1) C=CCN1CC(=O)N2[C@@H](Cc3ccc(O)cc3)C(=O)N(Cc3cccc4c(-c5ccc(C(C)=O)s5)cn(C)c34)C[C@@H]2N1C(=O)NCc1ccccc1
0.76
2) C=CCN1CC(=O)N2[C@@H](Cc3ccc(O)cc3)C(=O)N(Cc3cccc4c(-c5ccc(NC(=O)c6ccc(CN(CC)CC)cc6)cc5)cn(C)c34)C[C@@H]2N1C(=O)NCc1ccccc1
0.76
3) C=CCN1CC(=O)N2[C@@H](Cc3ccc(O)cc3)C(=O)N(Cc3cccc4c(-c5ccc(C(=O)N(C)OC)cc5)cn(C)c34)C[C@@H]2N1C(=O)NCc1ccccc1
0.11
4) C=CCN1CC(=O)N2[C@@H](Cc3ccc(O)cc3)C(=O)N(Cc3cccc4c(-c5ccc(NC(=O)CCCNCC(N)=O)cc5)cn(C)c34)C[C@@H]2N1C(=O)NCc1ccccc1
0.28
5) C=CCN1CC(=O)N2[C@@H](Cc3ccc(O)cc3)C(=O)N(Cc3cccc4c(-c5ccc(NC(=O)NC6CCCCC6)nc5)cn(C)c34)C[C@@H]2N1C(=O)NCc1ccccc1
1.28

Go through the items and report each one's log10 GI50.
1. C=CCN1CC(=O)N2[C@@H](Cc3ccc(O)cc3)C(=O)N(Cc3cccc4c(-c5ccc(NC(=O)N6CCN(C)CC6)nc5)cn(C)c34)C[C@@H]2N1C(=O)NCc1ccccc1
2. C=CCN1CC(=O)N2[C@@H](Cc3ccc(O)cc3)C(=O)N(Cc3cccc4c(-c5ccc(NC(=O)Nc6ccc(OC)nc6)cc5)cn(C)c34)C[C@@H]2N1C(=O)NCc1ccccc1 [Compound D-77]
3. C=CCN1CC(=O)N2C(CN(Cc3cccc4c(C(=O)Nc5ccc(N(C)CCCO)nc5)cn(C)c34)C(=O)[C@@H]2Cc2ccc(O)cc2)N1C(=O)NCc1ccccc1 (some centres unmarked)
4. C=CCN1CC(=O)N2[C@@H](Cc3ccc(O)cc3)C(=O)N(Cc3cccc4c(-c5ccc(C(=O)Nc6cccc(C(N)=O)c6)cc5)cn(C)c34)C[C@@H]2N1C(=O)NCc1ccccc1
5. C=CCN1CC(=O)N2[C@@H](Cc3ccc(O)cc3)C(=O)N(Cc3cccc4c(C(=O)Nc5ccc(OCCCN(C)C)nc5)cn(C)c34)C[C@@H]2N1C(=O)NCc1ccccc1
6. C=CCN1CC(=O)N2[C@@H](Cc3ccc(O)cc3)C(=O)N(Cc3cccc4c(-c5ccc(C(=O)NNC(C)(C)C)cc5)cn(C)c34)C[C@@H]2N1C(=O)NCc1ccccc1

0.11
0.81
0.23
0.45
0.95
0.08
